- test-name: qHTS to identify inhibitors of the type 1 interferon - major histocompatibility complex class I in skeletal muscle: primary screen against the NCATS Pharmaceutical Collection (AID 1347407);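 further: luminescence of HiBiT knocked into endogenous HLA-B as interferon-induced MHC class I level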
- test-conditions: human skeletal muscle cells, IFN-b-induced MHC-I HiBiT luminescence, 24 h; series mostly up to 45.9 µM
Results filed as inconclusive are left out. Activity calls are given as the source filed them. The call rests on the fitted dose curve; in most records, active means well fitted inhibition curve with a large enough effect; inconclusive means small, poorly fitted or top-dose-only effect; inactive means flat fitted curve, though single readings scatter.
Pick one and only one: TRUE for active, FALSE for inactive

Use these answered entries as a reference point.
{"columns": ["compound", "qualitative-label"],
 "data": [
  ["O=C(O)CCCc1ccc(N(CCCl)CCCl)cc1", "FALSE"],
  ["ClCCN1CCCC1", "FALSE"],
  ["COC1CC(=C(c2cccs2)c2cccs2)C[N+](C)(C)C1 (stereo not given)", "FALSE"],
  ["C[C@]12CCC(=O)C=C1CC[C@@H]1[C@H]3CC[C@](C)(O)[C@@]3(C)CC[C@@H]12", "FALSE"]
]}

Problem: // return assay outcome for CCCN(CCC)C(=O)Cc1c(-c2ccc(Cl)cc2)nc2ccc(Cl)cn12
Solution: FALSE

Problem: // return assay outcome for C[C@]12CC[C@@H]3c4ccc(OC(=O)N(CCCl)CCCl)cc4CC[C@H]3[C@@H]1CC[C@@H]2O
Solution: FALSE

Problem: // return assay outcome for CNCC(=O)c1ccc(O)c(O)c1
Solution: FALSE

Problem: // return assay outcome for CCN[C@@H](C)Cc1cccc(C(F)(F)F)c1
Solution: FALSE

Problem: // return assay outcome for NC1=NC(=O)C(c2ccccc2)O1 (stereo not given)
Solution: FALSE

Problem: // return assay outcome for C[C@]12CC[C@H]3[C@@H](CC[C@@]45O[C@H]4C(O)=C(C#N)C[C@]35C)[C@H]1CC[C@H]2O
Solution: TRUE

Problem: // return assay outcome for Clc1cccc(SC2CCNCC2)n1
Solution: FALSE

Problem: // return assay outcome for C=CCN1C[C@H](C)N([C@H](c2ccc(C(=O)N(CC)CC)cc2)c2cccc(OC)c2)C[C@H]1C
Solution: FALSE

====

- Tested on: MCC-13
- test-name: qHTS assay to identify novel small-molecules to repurpose for Merkel cell carcinoma treatment (AID 1296009); further: nearly all actives have a fitted effect of over 60% in size
- test-conditions: MCC and control cell lines, CellTiter-Glo viability, 72 h; series mostly up to 46 µM
Records with an inconclusive call do not appear. Calls of active or inactive are those of the source. The call rests on the fitted dose curve; in most records, active means well fitted inhibition curve with a large enough effect; inconclusive means small, poorly fitted or top-dose-only effect; inactive means flat fitted curve, though single readings scatter.
quantity: outcome

Use these answered entries as a reference point.
{"columns": ["structure", "outcome"],
 "data": [
  ["O=C1OC(c2ccc(O)c(S(=O)(=O)O)c2)(c2ccc(O)c(S(=O)(=O)O)c2)c2c(Br)c(Br)c(Br)c(Br)c21", "inactive"],
  ["CNC(C)(C)Cc1ccccc1", "inactive"],
  ["Clc1ccccc1N1CCNCC1", "inactive"],
  ["COc1ccc2c(c1OC)C(=O)O[C@H]2[C@@H]1c2cc3c(cc2CCN1C)OCO3", "inactive"]
]}

--- query ---
In plain terms, CN1CC[C@]23c4c5ccc(O)c4O[C@H]2[C@@H](O)C=C[C@H]3[C@H]1C5 has a documented outcome of inactive

====

- Test system: Tov-21-G
- test-name: Primary qHTS to identify gynecologic anti-cancer compounds using libraries of approved drugs and bioactive compounds (AID 1345084); further: nearly all actives have a fitted effect of over 55% in size
- test-conditions: Gynecologic cancer cell panel viability, ATPlite luminescence, 48 h; series mostly up to 57.5 µM
Results filed as inconclusive are left out. The source made the active and inactive calls. Calls come from the whole dose curve; as a rule, active = well fitted cell-killing curve with a large enough effect; inconclusive = small, poorly fitted or top-dose-only effect, or effect the other way; inactive = flat fitted curve, though single readings scatter.
quantity: outcome

Use these answered entries as a reference point.
{"columns": ["molecule", "experimental-value"],
 "data": [
  ["Nc1ccccc1C(=O)O", "inactive"],
  ["C[C@]12CCC(=O)C=C1CC[C@@H]1[C@H]3CC[C@](C)(O)[C@@]3(C)CC[C@@H]12", "inactive"],
  ["COc1ccc2c(c1OC)C(=O)O[C@H]2[C@@H]1c2cc3c(cc2CCN1C)OCO3", "inactive"],
  ["Nc1ccc([As](=O)(O)O)cc1", "inactive"],
  ["CCN[C@H](C)Cc1cccc(C(F)(F)F)c1", "inactive"],
  ["O=C(N/N=C/c1ccc([N+](=O)[O-])o1)c1cc([N+](=O)[O-])cc([N+](=O)[O-])c1O", "inactive"],
  ["COc1cc(CCN)cc(OC)c1OC", "inactive"],
  ["CC(C(=O)c1ccccc1)N(C)C (configuration not stated)", "inactive"]
]}

In plain terms, COP(=S)(OC)Oc1ccc(SC)c(C)c1 has a documented outcome of inactive

In plain terms, CC(C)(N)Cc1ccccc1Cl has a documented outcome of inactive

In plain terms, CCCCCCC(=O)CCCCCC/C=C/C[C@@H](O)[C@H](O)[C@@](N)(CO)C(=O)O has a documented outcome of inactive

In plain terms, CC(=O)C1CCOC1=O (configuration not stated) has a documented outcome of inactive
